Procedure Summary: qHTS Assay for Foot and Mouth Disease Virus Antivirals: Primary Screen against the MLPCN compound library; also: nearly all actives have a fitted effect of over 55% in size
Test Parameters: FMDV antiviral cell-based qHTS; series mostly up to 57.9 µM
About 2,000 (0.49%) of roughly 410,000 compounds were called active. Another 8% or so got no clear call; they are omitted. Calls follow the shape of the full dose curve; tested in HEK293 reporter line. For the sample, actives were picked, then their nearest neighbours and some compounds at random.
Hi there, use one of these labels in your reply, thanks! 1 (yes) (active), 0 (no) (inactive)

Qu. How was COc1ccc(Br)cc1CNC(=O)CCc1nc(-c2ccc(C)cc2)no1 classified in this test?
Ans. 0 (no)

Qu. Next up: COc1ccc(-c2noc(CCCOc3ccccc3)n2)cc1OC
Ans. 0 (no)

Qu. What do you get for Clc1ccc(OCc2nc(-c3ccccn3)no2)c(Br)c1 ?
Ans. 1 (yes)

Qu. Also COc1cccc(/C=N/NC(=O)c2nc(-c3ccccc3)cc(-c3ccccc3)n2)c1 , if possible.
Ans. 0 (no)

Qu. Then Cc1ccc(OCc2nc(-c3ccccn3)no2)c(Br)c1 ?
Ans. 1 (yes)

Qu. Proceed to Nc1nonc1-n1nnc(C(=O)N/N=C/c2ccc(O)cc2)c1COc1ccc(F)cc1
Ans. 0 (no)

Data provenance: PubChem BioAssay AID1347131
